assay-text: Bioavailability determined
Assay type: ADME, organism-based
test-conditions: eutheria, in vivo
quantity-name: bioavailability

[Q] Let me know recorded bioavailability for O=C(NO)C(CCn1nnc2ccccc2c1=O)CSc1ccc(-c2ccc(Cl)cc2)cc1 (stereo unspecified) , thanks.
[A] < 30%

----------
assay-text: Bioavailability in mouse (dose 50 mg/kg p.o.)
Type: ADME, organism-based
test-conditions: in vivo, po
quantity-name: bioavailability (%)
Kindly answer with a numeric value in %, unit omitted.

[Q] Let me know recorded bioavailability for O=C(O)[C@H]1[C@H](CN2C(=O)c3ccccc3C2=O)CC[C@@H]1SCCc1ccc(-c2ccc(F)cc2)cc1 , thanks.
[A] 93

[Q] Let me know recorded bioavailability for O=C(O)[C@H]1[C@H](Cn2nnc3ccccc3c2=O)CC[C@@H]1Sc1ccc(-c2ccc(Cl)cc2)cc1 , thanks.
[A] 69

----------
assay-text: In vivo half life in mice after 50 mg/kg (po) administration
Assay type: ADME, organism-based
Parameters: dose 50 mg/kg
test-conditions: mouse
So I've got a bunch of compounds here, and I need their half-life values.
Kindly answer with a numeric value in h, unit omitted.

[Q] Let me know recorded half-life for O=C(O)[C@H]1[C@H](Cn2nnc3ccccc3c2=O)CC[C@@H]1Sc1ccc(-c2ccc(Cl)cc2)cc1 , thanks.
[A] 3

[Q] Let me know recorded half-life for O=C(O)[C@H]1[C@H](CN2C(=O)c3ccccc3C2=O)CC[C@@H]1SCCc1ccc(-c2ccc(F)cc2)cc1 , thanks.
[A] 4

----------
assay-text: In vivo maximum plasma concentration was determined in mice after 50 mg/kg (ip) administration
Format: ADME, organism-based
Parameters: route intraperitoneal, dose 50 mg/kg
test-conditions: mouse
So I've got a bunch of compounds here, and I need their Cmax values.
Kindly answer with a numeric value in µg/mL, unit omitted.

[Q] Let me know recorded Cmax for O=C(O)[C@H]1[C@H](CN2C(=O)c3ccccc3C2=O)CC[C@@H]1SCCc1ccc(-c2ccc(F)cc2)cc1 , thanks.
[A] 130

[Q] Let me know recorded Cmax for O=C(O)[C@H]1[C@H](Cn2nnc3ccccc3c2=O)CC[C@@H]1Sc1ccc(-c2ccc(Cl)cc2)cc1 , thanks.
[A] 203

----------
assay-text: In vivo half life in mice after 50 mg/kg (ip) administration
Type: ADME, organism-based
Set-up: dose 50 mg/kg
test-conditions: mouse
quantity-name: half-life
Write down the value, and be sure its unit follows.

[Q] Let me know recorded half-life for O=C(O)[C@H]1[C@H](CN2C(=O)c3ccccc3C2=O)CC[C@@H]1SCCc1ccc(-c2ccc(F)cc2)cc1 , thanks.
[A] 4 h

[Q] Let me know recorded half-life for O=C(O)[C@H]1[C@H](Cn2nnc3ccccc3c2=O)CC[C@@H]1Sc1ccc(-c2ccc(Cl)cc2)cc1 , thanks.
[A] 4 h

----------
So I've got a bunch of compounds here, and I need their pIC50 values.
Entry type: numeric. Quantity: pIC50, the -log10 of concentration in molar units.

[Q] Look up 72 kDa type IV collagenase (Homo sapiens, UniProt P08253) data: pIC50 of O=C(O)[C@H]1[C@H](Cn2nnc3ccccc3c2=O)CC[C@@H]1S(=O)(=O)c1ccc(-c2ccc(Cl)cc2)cc1 , then report it.
[A] 7.08

[Q] Look up 72 kDa type IV collagenase (Homo sapiens, UniProt P08253) data: pIC50 of O=C(O)[C@H]1[C@H](CN2C(=O)c3ccccc3S2(=O)=O)CC[C@@H]1Sc1ccc(-c2ccc(Cl)cc2)cc1 , then report it.
[A] 7.89

[Q] Look up 72 kDa type IV collagenase (Homo sapiens, UniProt P08253) data: pIC50 of O=C(NO)C(CCn1nnc2ccccc2c1=O)CSc1ccc(-c2ccc(Cl)cc2)cc1 (stereo not drawn) , then report it.
[A] 10.22

----------
study-target: Interstitial collagenase (Homo sapiens)
pIC50: −log10 of the molar value.
Binary classification by pIC50, with 5 as an inclusive lower bound for t; all other cases are f.

[Q] Is it the case that O=C(O)[C@H]1[C@H](Cn2nnc3ccccc3c2=O)CC[C@@H]1SCCc1ccc(-c2ccc(Cl)cc2)cc1 has pIC50 reaching or exceeding 5?
[A] f

[Q] Is it the case that O=C(O)[C@H]1[C@H](Cn2nnc3ccccc3c2=O)CC[C@@H]1S(=O)(=O)c1ccc(-c2ccc(Cl)cc2)cc1 has pIC50 reaching or exceeding 5?
[A] f

[Q] Is it the case that O=C(O)[C@H]1[C@H](CN2NNc3ccsc3C2=O)CC[C@@H]1Sc1ccc(-c2ccc(Cl)cc2)cc1 has pIC50 reaching or exceeding 5?
[A] t

[Q] Is it the case that O=C(O)[C@H]1[C@H](Cn2c(=O)nc3ccccn3c2=O)CC[C@@H]1Sc1ccc(-c2ccc(Cl)cc2)cc1 has pIC50 reaching or exceeding 5?
[A] f

[Q] Is it the case that O=C(O)[C@H]1[C@H](CN2C(=O)c3ccccc3C2=O)CC[C@@H]1Sc1ccc(-c2ccccc2)cc1 has pIC50 reaching or exceeding 5?
[A] t

[Q] Is it the case that O=C(O)[C@H]1[C@H](Cn2nnc3ccccc3c2=O)CC[C@@H]1S(=O)(=O)CCc1ccc(-c2ccc(Cl)cc2)cc1 has pIC50 reaching or exceeding 5?
[A] f

[Q] Is it the case that CC1(C)NC(=O)N(C[C@@H]2CC[C@H](Sc3ccc(-c4ccc(Cl)cc4)cc3)[C@H]2C(=O)O)C1=O has pIC50 reaching or exceeding 5?
[A] f

[Q] Is it the case that O=C(O)[C@H]1[C@H](CN2C(=O)c3ccccc3C2=O)CC[C@@H]1SCc1ccc(-c2ccccc2)cc1 has pIC50 reaching or exceeding 5?
[A] f

[Q] Is it the case that O=C(NO)C(CCn1nnc2ccccc2c1=O)CSc1ccc(-c2ccc(Cl)cc2)cc1 (stereo not drawn) has pIC50 reaching or exceeding 5?
[A] f

[Q] Is it the case that O=C(O)[C@H]1[C@H](CN2NNc3nc[nH]c3C2=O)CC[C@@H]1Sc1ccc(-c2ccc(Cl)cc2)cc1 has pIC50 reaching or exceeding 5?
[A] t

[Q] Is it the case that O=C(O)[C@H]1[C@H](CN2C(=O)c3ccccc3C2=O)CC[C@@H]1SCCc1ccc(-c2ccccc2)cc1 has pIC50 reaching or exceeding 5?
[A] f

----------
study-target: Interstitial collagenase (Homo sapiens, UniProt P03956)
Sequence (P03956 whole entry): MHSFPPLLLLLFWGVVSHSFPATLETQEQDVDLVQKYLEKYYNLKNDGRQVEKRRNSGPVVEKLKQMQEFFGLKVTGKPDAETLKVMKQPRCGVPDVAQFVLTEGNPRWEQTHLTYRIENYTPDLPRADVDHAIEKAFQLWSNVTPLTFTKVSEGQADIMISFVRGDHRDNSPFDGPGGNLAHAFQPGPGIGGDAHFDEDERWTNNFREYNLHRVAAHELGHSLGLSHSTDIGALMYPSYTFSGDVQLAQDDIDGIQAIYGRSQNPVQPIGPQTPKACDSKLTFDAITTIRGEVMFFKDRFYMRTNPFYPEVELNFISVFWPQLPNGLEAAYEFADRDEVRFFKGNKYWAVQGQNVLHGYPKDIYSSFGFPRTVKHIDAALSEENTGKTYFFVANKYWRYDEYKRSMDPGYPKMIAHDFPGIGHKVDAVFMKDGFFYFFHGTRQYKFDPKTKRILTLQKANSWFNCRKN
So I've got a bunch of compounds here, and I need their IC50 values.

[Q] Look up Interstitial collagenase (Homo sapiens, UniProt P03956) data: IC50 of O=C(O)[C@H]1[C@H](CN2C(=O)c3ccccc3C2=O)CC[C@@H]1SCCc1ccc(-c2ccc(F)cc2)cc1 , then report it.
[A] 6 µM

[Q] Look up Interstitial collagenase (Homo sapiens, UniProt P03956) data: IC50 of O=C(O)[C@H]1[C@H](Cn2nc3n(c2=O)CCCCC3)CC[C@@H]1Sc1ccc(-c2ccc(Cl)cc2)cc1 , then report it.
[A] > 10 µM

[Q] Look up Interstitial collagenase (Homo sapiens, UniProt P03956) data: IC50 of O=C(O)[C@H]1[C@H](CN2C(=O)c3ccccc3S2(=O)=O)CC[C@@H]1Sc1ccc(-c2ccc(Cl)cc2)cc1 , then report it.
[A] 2.1 µM

[Q] Look up Interstitial collagenase (Homo sapiens, UniProt P03956) data: IC50 of O=C(O)[C@H]1[C@H](Cn2nnc3ccccc3c2=O)CC[C@@H]1Sc1ccc(-c2ccncc2)cc1 , then report it.
[A] > 36 µM

----------
Species on record: Homo sapiens
assay-text: In vitro metabolic stability and first pass metabolism was evaluated in human hepatic microsomes
Assay type: ADME, Liver
quantity-name: MF (%)
Kindly answer with a numeric value in %, unit omitted.

[Q] Let me know recorded MF for O=C(O)[C@H]1[C@H](Cn2nnc3ccccc3c2=O)CC[C@@H]1SCCc1ccc(-c2ccc(Cl)cc2)cc1 , thanks.
[A] 63

[Q] Let me know recorded MF for O=C(O)[C@H]1[C@H](CN2C(=O)c3ccccc3C2=O)CC[C@@H]1SCCc1ccc(-c2ccc(Cl)cc2)cc1 , thanks.
[A] 61

[Q] Let me know recorded MF for O=C(O)[C@H]1[C@H](CN2C(=O)c3ccccc3C2=O)CC[C@@H]1S(=O)(=O)CCc1ccc(-c2ccc(Cl)cc2)cc1 , thanks.
[A] 91

[Q] Let me know recorded MF for O=C(O)[C@H]1[C@H](Cn2nnc3ccccc3c2=O)CC[C@@H]1Sc1ccc(-c2ccc(Cl)cc2)cc1 , thanks.
[A] 100

[Q] Let me know recorded MF for O=C(O)[C@H]1[C@H](CN2C(=O)c3ccccc3C2=O)CC[C@@H]1SCCc1ccc(-c2ccc(F)cc2)cc1 , thanks.
[A] 62
